Test system: C. albicans
Test: C. albicans colony forming units (viability) after incubation with peptide
Type: cell-based
Conditions: FIG. 2; 10^−4 M melanocortin peptides (FIG. 2 legend: all 10^−6 M)
Experimental Readout: relative potency in reducing C. albicans viability

Substance | Reported Value
HFRWGKPV (Ac-HFRWGKPV-NH2) [α-MSH (6-13)] | most effective
SYSMEHFRWGKPV [α-MSH (1-13)] | most effective
KPV (Ac-Lys-Pro-Val-NH2) [α-MSH (11-13)] | most effective
